- assayed system: hErbB3.mmh (soluble monomeric human ErbB3 extracellular domain with C-terminal myc-myc-hexahistidine tag) (human, UniProt P21860 20-642)
- Sequence (P21860 other isoform, or with tags, fused parts or gaps): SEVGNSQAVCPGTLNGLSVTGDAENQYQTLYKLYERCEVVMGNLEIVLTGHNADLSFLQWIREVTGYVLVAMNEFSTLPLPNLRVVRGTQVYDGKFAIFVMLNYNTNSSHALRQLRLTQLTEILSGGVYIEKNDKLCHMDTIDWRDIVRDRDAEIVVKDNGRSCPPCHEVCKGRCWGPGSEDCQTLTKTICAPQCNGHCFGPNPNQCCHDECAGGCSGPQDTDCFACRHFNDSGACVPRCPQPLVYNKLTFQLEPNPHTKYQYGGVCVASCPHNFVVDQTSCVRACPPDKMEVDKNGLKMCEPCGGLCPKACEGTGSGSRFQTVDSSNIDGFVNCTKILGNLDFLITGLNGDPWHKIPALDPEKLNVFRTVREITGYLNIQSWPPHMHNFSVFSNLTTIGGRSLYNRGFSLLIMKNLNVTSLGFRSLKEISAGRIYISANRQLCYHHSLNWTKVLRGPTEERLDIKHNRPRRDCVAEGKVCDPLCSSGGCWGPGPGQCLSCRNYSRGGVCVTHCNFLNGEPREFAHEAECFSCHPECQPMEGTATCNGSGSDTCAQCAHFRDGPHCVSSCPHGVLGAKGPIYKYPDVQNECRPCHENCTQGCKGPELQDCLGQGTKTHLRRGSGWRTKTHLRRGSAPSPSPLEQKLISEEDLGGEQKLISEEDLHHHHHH
- assay: SPR (Biacore), 25 C, mAb capture format
- Protocol: (Tables 2-4). Measurements were conducted on a Biacore 2000 or T100 instrument. […] Kinetic association (kₐ) and dissociation (kd) rate constants were determined by processing and fitting the data to a 1:1 binding model using Scrubber 2.0 curve fitting software.
endpoint: koff (s⁻¹)
Express your answer in s⁻¹, writing the number without its unit.

# binder, koff / s⁻¹
rows = [
    ("H4H2290P (antibody, V domains shown, Fully human, human IgG4 Fc (H4H prefix)) VH: EVQLLESGGGLVQPGGSLRLSCVASGFTFSSFAMSWVRQAPGKGLEWVSVISGSGGSTNHADSVRGRFTISRDNSLNTVYLQMHSLRAEDTALYYCVKAETSSSYFYYGMDVWGQGTTVTVSS VL: DIQLTQSPSFLSASVGDRVTITCWASQDISSYLAWYQQKPGKVPNLLIYGASSLQPGVPSRFSGSGSGTEFTLTISSLQPEDFATYYCQQLNNYPTFGGGTKLEIKR", "6.72e-05"),
]

Turning now to a further record.
May I ask what koff has been recorded for H4H2140P (antibody, V domains shown, Fully human, human IgG4 Fc (H4H prefix)) VH: EVQLVESGGGLVQPGGSLRLSCAASGFSVSYYDMHWVRQVTGKGLEWVSAIGPAGDTYYPGSVKGRFTISREDATNSLYLQIHSLGAGDTAVYYCAREGAIAARPDDYYGMDVWGQGTTVTVSS VL: DIQLTQSPSFLSASVGDRVTITCWASQDISSYLAWYQQKPGKAPKLLIYAASTLQSGVPSRFSGSGSGTEFTLTISSLQPEDFATYYCQQLNSYPLTFGGGTKVEIKR ?
3.27e-05
